Assay: physchem
Type: physicochemical
Conditions: pH 7, aqueous buffer, kinetic from dmso stock
quantity name: solubility

Would you mind telling me what solubility value was observed for Cc1cc(/C=C/C#N)cc(C)c1Oc1ccnc(Nc2ccc(N3CCN(S(C)(=O)=O)CC3)c(C#N)c2)n1 [Compound 18b1] ?
13.5 µg/mL

* * *

System: HIV-1 K103N
Experiment: Anti-HIV-1 activity against K103N mutant strain, MTT method in MT-4 cells
Assay type: cell-based
Settings: Human immunodeficiency virus 1, MT4, read-out: EC50 K103N
quantity name: EC50 (nM)
Numbers only, in nM.

• Cc1ccnc2c1NC(=O)c1cccnc1N2C1CC1 [NVP, Nevirapine] = 6040
• Cc1cc(/C=C/C#N)cc(C)c1Oc1ccnc(Nc2ccc(CN3CCN(S(C)(=O)=O)CC3)cc2)n1 [BH-11c] = 3.7
• O=C1Nc2ccc(Cl)cc2[C@@](C#CC2CC2)(C(F)(F)F)O1 [EFV, efavirenz] = 120
• Cc1cc(/C=C/C#N)cc(C)c1Oc1ccnc(Nc2ccc(N3CCN(S(C)(=O)=O)CC3)c(C#N)c2)n1 [Compound 18b1] = 1.7

Below: the item to evaluate.
What value of EC50 has been recorded for this entry: Cc1cc(C#N)cc(C)c1Oc1nc(Nc2ccc(C#N)cc2)nc(N)c1Br [ETR, etravirine]
4.3

* * *

Biological target: CYP2D6 (Homo sapiens)
Sequence (P10635 whole entry): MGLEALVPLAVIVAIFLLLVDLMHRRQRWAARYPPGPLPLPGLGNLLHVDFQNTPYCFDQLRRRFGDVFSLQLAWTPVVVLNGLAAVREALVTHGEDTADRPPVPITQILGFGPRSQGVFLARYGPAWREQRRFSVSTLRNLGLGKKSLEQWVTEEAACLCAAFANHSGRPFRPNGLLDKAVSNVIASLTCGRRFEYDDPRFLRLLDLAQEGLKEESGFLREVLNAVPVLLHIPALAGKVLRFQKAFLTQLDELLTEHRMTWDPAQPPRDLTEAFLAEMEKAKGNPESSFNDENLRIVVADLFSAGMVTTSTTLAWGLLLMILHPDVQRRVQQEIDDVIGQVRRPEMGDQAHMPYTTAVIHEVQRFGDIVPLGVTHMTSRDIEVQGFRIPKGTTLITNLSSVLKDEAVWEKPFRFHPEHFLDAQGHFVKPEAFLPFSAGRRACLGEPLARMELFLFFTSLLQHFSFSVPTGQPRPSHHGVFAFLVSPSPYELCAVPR
Experiment: in vitro
Settings: human, microsomes, IC50 CYP2D6
quantity name: IC50 at 10 min

- Cc1cc(C#N)cc(C)c1Oc1nc(Nc2ccc(C#N)cc2)nc(N)c1Br [ETR, etravirine]: > 10 µM

Kindly review the next molecule as well.
Please give the measured IC50 at 10 min for this molecule: Cc1cc(/C=C/C#N)cc(C)c1Oc1ccnc(Nc2ccc(N3CCN(S(C)(=O)=O)CC3)c(C#N)c2)n1 [Compound 18b1]
> 10 µM

* * *

Assay: in vivo
Settings: male, Sprague-Dawley, rat, plasma, iv, 2 mg/kg
quantity name: Tmax (min)
Give bare numbers, in min.

Need Tmax of Cc1cc(/C=C/C#N)cc(C)c1Oc1ccnc(Nc2ccc(N3CCN(S(C)(=O)=O)CC3)c(C#N)c2)n1 , thanks.
4.8

* * *

Target: CYP2C9 (Homo sapiens)
Sequence (P11712 whole entry): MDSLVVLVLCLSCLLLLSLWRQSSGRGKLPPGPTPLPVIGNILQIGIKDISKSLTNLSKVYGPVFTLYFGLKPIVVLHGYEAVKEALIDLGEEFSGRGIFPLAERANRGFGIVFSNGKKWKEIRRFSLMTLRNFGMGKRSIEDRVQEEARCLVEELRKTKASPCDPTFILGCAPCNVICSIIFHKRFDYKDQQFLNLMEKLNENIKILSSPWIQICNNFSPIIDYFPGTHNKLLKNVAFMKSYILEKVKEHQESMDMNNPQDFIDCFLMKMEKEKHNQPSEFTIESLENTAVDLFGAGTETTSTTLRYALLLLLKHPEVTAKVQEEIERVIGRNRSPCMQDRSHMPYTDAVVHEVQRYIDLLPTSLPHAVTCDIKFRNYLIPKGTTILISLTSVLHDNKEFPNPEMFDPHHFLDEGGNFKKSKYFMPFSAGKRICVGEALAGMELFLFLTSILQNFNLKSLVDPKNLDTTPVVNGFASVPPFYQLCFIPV
Assay: CYP enzyme inhibition assay in human liver microsome, CYP2C9
Details: read-out: IC50 CYP2C9; human liver microsome, probe substrate diclofenac
quantity name: pIC50
One number for each entry, as −log10 of the molar value.

# pIC50 lookup, item Cc1cc(C#N)cc(C)c1Oc1nc(Nc2ccc(C#N)cc2)nc(N)c1Br
6.56

* * *

Assay: in vivo
Settings: male, Sprague-Dawley, rat, plasma, iv, 2 mg/kg
quantity name: AUC(0-t) (ng·h/mL)
Numbers only, in ng·h/mL.

Could you tell me which AUC(0-t) is on file for Cc1cc(/C=C/C#N)cc(C)c1Oc1ccnc(Nc2ccc(N3CCN(S(C)(=O)=O)CC3)c(C#N)c2)n1 ?
785

* * *

Assay: in vivo
Settings: male, Sprague-Dawley, rat, plasma, po, 10 mg/kg
quantity name: Tmax (h)
Give bare numbers, in h.

I am curious: what Tmax value has been reported for Cc1cc(/C=C/C#N)cc(C)c1Oc1ccnc(Nc2ccc(N3CCN(S(C)(=O)=O)CC3)c(C#N)c2)n1 ?
3.5

* * *

Biological target: UniProt P10635
Experiment: CYP enzyme inhibition assay in human liver microsome, CYP2D6
Settings: read-out: IC50 CYP2D6; human liver microsome, probe substrate dextromethorphan
quantity name: IC50 (µM)
One number for each entry, in µM.

// query IC50 value for entry Cc1cc(C#N)cc(C)c1Oc1nc(Nc2ccc(C#N)cc2)nc(N)c1Br
12

* * *

Molecular target: CYP2C19 (Homo sapiens, UniProt P33261)
Sequence (P33261 whole entry): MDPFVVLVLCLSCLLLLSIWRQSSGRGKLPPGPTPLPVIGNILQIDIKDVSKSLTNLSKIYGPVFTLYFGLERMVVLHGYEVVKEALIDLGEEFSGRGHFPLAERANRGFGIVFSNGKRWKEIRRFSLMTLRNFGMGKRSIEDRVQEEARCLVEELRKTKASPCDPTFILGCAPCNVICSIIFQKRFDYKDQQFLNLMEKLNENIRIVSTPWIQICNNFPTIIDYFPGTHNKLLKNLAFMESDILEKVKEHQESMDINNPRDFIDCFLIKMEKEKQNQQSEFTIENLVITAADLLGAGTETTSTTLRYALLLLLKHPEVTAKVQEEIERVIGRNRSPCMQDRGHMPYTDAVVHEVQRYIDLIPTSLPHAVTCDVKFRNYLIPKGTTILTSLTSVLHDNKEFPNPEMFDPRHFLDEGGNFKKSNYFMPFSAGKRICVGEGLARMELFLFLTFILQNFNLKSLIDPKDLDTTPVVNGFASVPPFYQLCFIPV
Assay: CYP enzyme inhibition assay in human liver microsome, CYP2C19
Details: read-out: IC50 CYP2C19; human liver microsome, probe substrate S-mephenytoin
quantity name: IC50 (µM)
Answers are plain numbers, in µM.

What value of measured IC50 is listed for Cc1cc(C#N)cc(C)c1Oc1nc(Nc2ccc(C#N)cc2)nc(N)c1Br ?
0.496

* * *

Target: WT HIV-1 RT (Human immunodeficiency virus type 1 group M subtype B, UniProt P04585)
Construct: purchased Roche
Test: biochemical
Conditions: read-out: IC50 against WT HIV-1 RT; inhibition of biotin deoxyuridine triphosphate incorporation into HIV-1 IIIB RT by 50%, mean ± SD, n = 2
quantity name: pIC50
Answers are plain numbers, as −log10 of the molar value.

Report pIC50 for Cc1cc(/C=C/C#N)cc(C)c1Oc1ccnc(Nc2ccc(N3CCN(S(C)(=O)=O)CC3)c(C#N)c2)n1 please.
7.03

* * *

Assay: in vivo
Conditions: male, Sprague-Dawley, rat, plasma, iv, 2 mg/kg
quantity name: clearance (mL/min/kg)
Give bare numbers, in mL/min/kg.

Look up clearance: Cc1cc(/C=C/C#N)cc(C)c1Oc1ccnc(Nc2ccc(N3CCN(S(C)(=O)=O)CC3)c(C#N)c2)n1
42.3

* * *

Target: UniProt P11712
Experiment: in vitro
Details: human, microsomes
quantity name: IC50 at 10 min (µM)
Answers are plain numbers, in µM.

Look up IC50 at 10 min for this molecule: Cc1cc(/C=C/C#N)cc(C)c1Oc1ccnc(Nc2ccc(N3CCN(S(C)(=O)=O)CC3)c(C#N)c2)n1
5.3

* * *

Tested on: HIV-1 K103N/Y181C double mutant (RES056)
Experiment: microbe, parasite or virus in culture
Format: cell-based
Conditions: Human immunodeficiency virus 1, MT4, read-out: EC50 RES056
quantity name: EC50 (nM)
Numbers only, in nM.

Below are worked cases with known answers.
• O=C1Nc2ccc(Cl)cc2[C@@](C#CC2CC2)(C(F)(F)F)O1 = 300
• Cc1cc(/C=C/C#N)cc(C)c1Oc1ccnc(Nc2ccc(N3CCN(S(C)(=O)=O)CC3)c(C#N)c2)n1 = 93
• Cc1cn([C@H]2C[C@H](N=[N+]=[N-])[C@@H](CO)O2)c(=O)[nH]c1=O = 37

Now for another entry.
Which measured EC50 value corresponds to Cc1cc(C#N)cc(C)c1Oc1nc(Nc2ccc(C#N)cc2)nc(N)c1Br ?
76

This collection of values is drawn from paper PMC10148624.
